- systemTested: Mouse inducible nitric oxide synthase (miNOS) (Mus musculus)
- Construct: prepared from an extract of LPS-treated RAW 264.7 cells and partially purified by DEAE-Sepharose chromatography; endogenous in cells; host or cells: LPS-treated RAW 264.7 cells (mouse macrophage line)
- Sequence (P29477 whole entry): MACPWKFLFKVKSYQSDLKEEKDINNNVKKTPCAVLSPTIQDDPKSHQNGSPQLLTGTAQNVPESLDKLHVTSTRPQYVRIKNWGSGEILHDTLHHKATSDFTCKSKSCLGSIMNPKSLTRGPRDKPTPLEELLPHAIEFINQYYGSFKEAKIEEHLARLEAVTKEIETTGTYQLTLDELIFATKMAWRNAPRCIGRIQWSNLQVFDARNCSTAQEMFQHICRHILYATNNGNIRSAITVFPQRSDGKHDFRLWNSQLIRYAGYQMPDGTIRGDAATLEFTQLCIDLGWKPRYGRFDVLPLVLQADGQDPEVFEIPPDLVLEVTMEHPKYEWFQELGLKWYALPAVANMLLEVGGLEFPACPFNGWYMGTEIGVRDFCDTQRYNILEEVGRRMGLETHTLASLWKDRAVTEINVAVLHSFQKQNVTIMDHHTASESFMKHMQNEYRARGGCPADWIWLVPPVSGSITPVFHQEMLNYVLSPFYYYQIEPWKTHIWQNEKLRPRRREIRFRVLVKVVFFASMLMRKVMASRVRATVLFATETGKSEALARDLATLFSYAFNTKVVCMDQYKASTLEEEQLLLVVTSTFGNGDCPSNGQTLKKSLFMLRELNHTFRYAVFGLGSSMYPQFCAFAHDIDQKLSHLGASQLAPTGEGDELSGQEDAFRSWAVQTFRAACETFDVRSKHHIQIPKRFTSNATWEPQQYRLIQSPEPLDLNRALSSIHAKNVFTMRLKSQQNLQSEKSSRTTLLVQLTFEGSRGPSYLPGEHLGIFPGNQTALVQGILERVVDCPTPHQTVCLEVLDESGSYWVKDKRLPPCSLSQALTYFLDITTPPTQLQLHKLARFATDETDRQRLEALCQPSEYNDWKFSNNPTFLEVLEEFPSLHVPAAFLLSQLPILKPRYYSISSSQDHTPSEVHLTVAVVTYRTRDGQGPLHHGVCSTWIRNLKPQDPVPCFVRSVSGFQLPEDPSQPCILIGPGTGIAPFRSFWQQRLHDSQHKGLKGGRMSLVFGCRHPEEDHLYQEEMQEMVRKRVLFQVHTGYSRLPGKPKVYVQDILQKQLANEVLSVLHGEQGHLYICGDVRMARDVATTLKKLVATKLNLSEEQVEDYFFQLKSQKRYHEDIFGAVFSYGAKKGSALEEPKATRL
- runDescription: biochemical
- conditionDetails: conversion of [3H]-arginine to [3H]-citrulline; 37° C., 15 minutes; read-out: iNOS
pIC50: −log10 of the molar value. Where a name gives a salt, the structure may show the parent alone.
valueType: pIC50

>>> endpointresult("N=C1NCC(CCl)O1 (stereo not drawn)")
6.00
>>> endpointresult("NC1=NCCCS1 [Example 17, 2-Imino-3-thiapiperidine hydrochloride]")
6.10
>>> endpointresult("CC1CN=C(N)C1 (stereo not drawn) [Example 182, monohydrochloride]")
5.85
>>> endpointresult("C[C@@H]1CCCC(N)=NC1 [Example 90, monohydrochloride]")
5.15
>>> endpointresult("CC1CCC(N)=N1 (stereo not drawn)")
5.49
>>> endpointresult("NC1=NCCCO1 [Example 18, hydrochloride]")
6.10
>>> endpointresult("CCC(CC)CC1CCCCC(=N)N1.Cl (stereo not drawn) [Example 198, monohydrochloride]")
5.68
>>> endpointresult("CCC1NC(=N)CC1C (stereo not drawn) [Example 217, monohydrochloride]")
6.77
>>> endpointresult("CC1CC(N)=NC(C)C1 (stereo not drawn) [Example 10, 2-imino-4,6-dimethylpiperidine acetate]")
7.37

* * *

Parameter: IC50. Scope: all listed entries.
- systemTested: Mouse inducible nitric oxide synthase (miNOS) (Mus musculus)
- Construct: prepared from an extract of LPS-treated RAW 264.7 cells and partially purified by DEAE-Sepharose chromatography; endogenous in cells; host or cells: LPS-treated RAW 264.7 cells (mouse macrophage line)
- runDescription: biochemical
- conditionDetails: read-out: iNOS
Structures can show the parent of a compound that is named as a salt.
valueType: IC50

>>> endpointresult("NC1=NC(c2ccccc2)CCCC1 (stereo not drawn) [Example 192, monohydrochloride]")
"12 µM"
>>> endpointresult("NC1=NCCC1 [Example 12, 2-iminopyrrolidine hydrochloride]")
"5.1 µM"
>>> endpointresult("CC1CCN=C(N)C1 (stereo not drawn) [Example 6, 2-Imino-4-methylpiperidine acetate]")
"0.055 µM"

* * *

Recorded melting point values for a group of compounds are listed next.
Structures can show the parent of a compound that is named as a salt.
valueType: melting point

>>> endpointresult("CC1CCC(=N)NC1 (centres unmarked) (as salt: acetate) [Example 7, 2-Imino-5-methylpiperidine acetate]")
"175 to 178 °C"
>>> endpointresult("Cl.N=C1CCC2=C(CCCC2)N1")
"150 to 155 °C"
>>> endpointresult("CC1CCC(O)C(=N)N1 (centres unmarked) (as salt: acetate)")
"158 to 160 °C"
>>> endpointresult("CC1CC(=N)NC(C)C1 (centres unmarked) (as salt: acetate) [Example 10, 2-imino-4,6-dimethylpiperidine acetate]")
"163 to 166 °C"
>>> endpointresult("CN1CCCCCC1=N (as salt: hydroiodid)")
"137 to 139 °C"
>>> endpointresult("CN=C1CCCCCN1 (as salt: hydroiodid)")
"169 to 171 °C"
>>> endpointresult("CN1CCCCC1=N (as salt: hydroiodid)")
"157 to 158 °C"
>>> endpointresult("N=C1NCCCC1O (centres unmarked) (as salt: acetate) [Example 11, 2-Imino-3-hydroxypiperidine acetate]")
"128 to 130 °C"
>>> endpointresult("Cl.N=C1CC(C(=O)O)CCN1 (centres unmarked)")
"230 to 234 °C"
>>> endpointresult("CC1CCCNC1=N (centres unmarked) (as salt: acetate) [Example 9, 2-imino-3-methylpiperidine acetate]")
"88 to 100 °C"
>>> endpointresult("CC1CCCC(=N)N1.Cl (centres unmarked) [Example 8, 2-Imino-6-methylpiperidine hydrochloride]")
"160 to 162 °C"
